Values compiled from patent US10703764B2.

biological target: BRD4 BD1 (Homo sapiens, UniProt O60885); construct: made in house; experiment: AlphaScreen binding assay, BRD4 Bromodomain 1
pIC50: −log10 of the molar value.
READOUT: pIC50

| CHEM_SMILES | TARGET | RESULT |
| --- | --- | --- |
| CC(=O)N1c2ccc(-c3cnn(C4CC4)c3)cc2N(C(=O)Oc2ccc(F)cc2)C[C@@H]1C | BRD4 BD1 (Homo sapiens, UniProt O60885) | 6.00 to 7.00 |
| CCc1ccc(CN2C[C@H](C)N(C(C)=O)c3ccccc32)cc1 | BRD4 BD1 (Homo sapiens, UniProt O60885) | < 5.00 |
| C[C@H]1CN(C(=O)c2ccco2)c2cc(-c3ccc(S(C)(=O)=O)cc3)ccc2N1C(=O)C(F)(F)F | BRD4 BD1 (Homo sapiens, UniProt O60885) | < 5.00 |
| CC(=O)N1c2ccc(-c3ccc(S(=O)(=O)N(C)C)cc3)cc2N(C(=O)OC2CCOCC2)C[C@@H]1C | BRD4 BD1 (Homo sapiens, UniProt O60885) | 6.00 to 7.00 |
| CCCn1cc(-c2ccc3c(c2)N(C(=O)c2ccco2)C[C@H](C)N3C(=O)C(F)(F)F)cn1 | BRD4 BD1 (Homo sapiens, UniProt O60885) | 5.00 to 6.00 |
| COC(=O)N1c2ccc(-c3cnn(CC(C)(C)O)c3)cc2N(C(=O)Oc2ccc(F)cc2)C[C@@H]1C | BRD4 BD1 (Homo sapiens, UniProt O60885) | 6.00 to 7.00 |
| CC(=O)N1c2ccc(-c3ccccc3NS(C)(=O)=O)cc2N(C(=O)c2ccco2)C[C@@H]1C | BRD4 BD1 (Homo sapiens, UniProt O60885) | < 5.00 |
| CC(=O)N1c2ccc(-c3ccc(S(C)(=O)=O)cc3)cc2N(C(=O)Nc2ccc(Cl)cc2)C[C@@H]1C | BRD4 BD1 (Homo sapiens, UniProt O60885) | < 5.00 |
| CC(=O)N1c2ccc(-c3ccc(C(=O)N4CCCC4)cc3)cc2N(C(=O)c2ccco2)C[C@@H]1C | BRD4 BD1 (Homo sapiens, UniProt O60885) | 5.00 to 6.00 |
| CC(=O)N1c2ccccc2N(C(=O)c2c(C)noc2C)C[C@@H]1C | BRD4 BD1 (Homo sapiens, UniProt O60885) | < 5.00 |
| CC(=O)N1c2ccc(-c3ccc4ncccc4c3)cc2N(C(=O)COc2ccccc2)C[C@@H]1C | BRD4 BD1 (Homo sapiens, UniProt O60885) | 5.00 to 6.00 |
| CC(=O)N1c2ccc(-c3cnn(CC(=O)N4CCOCC4)c3)cc2N(C(=O)C2CC2)C[C@@H]1C | BRD4 BD1 (Homo sapiens, UniProt O60885) | 5.00 to 6.00 |
| CC(=O)N1c2ccc(-c3ccc(C(F)(F)F)nc3)cc2N(C(=O)c2ccco2)C[C@@H]1C | BRD4 BD1 (Homo sapiens, UniProt O60885) | 5.00 to 6.00 |
| COC(=O)N1c2ccc(-c3ccc(C4(O)COC4)cc3)cc2N(C(=O)C2CC2)C[C@@H]1C | BRD4 BD1 (Homo sapiens, UniProt O60885) | 5.00 to 6.00 |
| CC(=O)N1c2ccc(-c3ccc(NS(C)(=O)=O)cc3)cc2N(C(=O)Oc2ccc(F)cc2)C[C@@H]1C | BRD4 BD1 (Homo sapiens, UniProt O60885) | 6.00 to 7.00 |

###

Target: BRD4 BD1 (Homo sapiens)
Assay: AlphaScreen binding assay, BRD4 Bromodomain 1
Method: The binding of Example compounds to BRD4 Bromodomain 1 and BRD4 Bromodomain 2 was assessed using 384-well AlphaScreen assay technology. His-epitope tagged BRD4 BD144-168 and BRD4 BD2333-460 were cloned, expressed, and purified to homogeneity. BRD4 BD1 and BRD4 BD2 binding and inhibition was assessed by monitoring the engagement of biotinylated Histone H4 (1-21) K5/8/12/16 tetra-acetylated peptide with the targets using the AlphaScreen technology (PerkinElmer). […]
// reported IC50 for each item listed

| COMPOUND | IC50 |
| --- | --- |
| COc1cncc(CN2C[C@H](C)N(C(C)=O)c3ccccc32)c1 | > 10000 nM |
| CC(=O)N1c2ccc(-c3cnn(C4CCNC(=O)C4)c3)cc2N(C(=O)OC(C)C)C[C@@H]1C (stereo partly drawn) | 100 to 1000 nM |
| CC(=O)N1c2ccc(-c3cnn(C4CS(=O)(=O)C4)c3)cc2N(C(=O)OC2CCCC2)C[C@@H]1C | 100 to 1000 nM |
| CC(=O)N1c2cc(C#N)c(-c3cnn(C4CC4)c3)cc2N(C(=O)OC(C)C)C[C@@H]1C | 100 to 1000 nM |
| CC(=O)N1c2ccc(-c3ccc(NC(=O)N4CCOCC4)cc3)cc2N(C(=O)c2ccco2)C[C@@H]1C | 1000 to 10000 nM |
| COC(=O)N1c2ccc(-c3ccc(C(=O)N4CC[C@@H](NC(C)=O)C4)cc3)cc2N(C(=O)OC(C)C)C[C@@H]1C | 100 to 1000 nM |
| CC(=O)N1c2ccc(-c3cnn(CCO)c3)cc2N(c2nn(C)c3c(F)cccc23)C[C@@H]1C | 1000 to 10000 nM |
| CC(=O)N1c2ncc(-c3ccc(S(C)(=O)=O)cc3)cc2N(C(=O)c2ccco2)C[C@@H]1C | 1000 to 10000 nM |
| CC(=O)N1c2ccc(-c3cnn(C4CCS(=O)(=O)CC4)c3)cc2N(C(=O)OC(C)C)C[C@@H]1C | 100 to 1000 nM |
| CC(=O)N1c2ccc(-c3cnn(CCO)c3)cc2N(C(=O)Oc2ccc(F)cc2F)C[C@@H]1C | 1000 to 10000 nM |
| CC(=O)N1c2ccccc2N(C(=O)CCc2ccccc2)C[C@@H]1C | > 10000 nM |
| CC(=O)N1c2ccc(Nc3ccccc3)cc2N(C(=O)c2ccco2)C[C@@H]1C | 1000 to 10000 nM |
| CC(=O)N1c2ccc(-c3ccc(N4CCS(=O)(=O)CC4)cc3)cc2N(C(=O)OC(C)C)C[C@@H]1C | 100 to 1000 nM |
| CC(=O)N1c2ccc(-c3cnn(C4CCOCC4)c3)cc2N(C(=O)OC2CCCCC2)C[C@@H]1C | < 100 nM |
| CC(C)OC(=O)N1C[C@H](C)N(C(=O)C2CC2)c2ccc(-c3cnn(CC#N)c3)cc21 | 1000 to 10000 nM |
| CC(=O)N1c2ccc(-c3cnn(C4CCC4)c3)cc2N(C(=O)OC2CCCC2)C[C@@H]1C | < 100 nM |
| CC(=O)N1c2ccc(-c3ccc(N4CCCS4(=O)=O)c(F)c3)cc2N(C(=O)C2CCC2)C[C@@H]1C | 1000 to 10000 nM |
| COc1ccc2[nH]c(C(=O)N3CC(C)N(C(C)=O)c4ccc(-c5ccc(S(C)(=O)=O)cc5)cc43)cc2c1 (stereo not drawn) | 1000 to 10000 nM |
| CC(=O)N1c2ccc(-c3cnn(C4COC4)c3)cc2N(C(=O)OCC2(C)COC2)C[C@@H]1C | 1000 to 10000 nM |
| CC(=O)N1c2ccc(-c3ccc4cnccc4c3)cc2N(C(=O)c2ccco2)C[C@@H]1C | 100 to 1000 nM |
| CC(=O)N1c2ccccc2N(S(=O)(=O)c2ccc(C(F)(F)F)cc2)C[C@@H]1C | > 10000 nM |
| CC(=O)N1c2ccc(-c3cnn(C4CC4)c3)cc2N(c2noc3ccccc23)C[C@@H]1C | < 100 nM |
| COC(=O)c1ccc(OC(=O)N2C[C@H](C)N(C(C)=O)c3ccc(-c4cnn(C5CC5)c4)cc32)cc1 | 100 to 1000 nM |
| CCS(=O)(=O)Nc1ccc(-c2ccc3c(c2)N(C(=O)C2CC2)C[C@H](C)N3C(C)=O)cc1 | 100 to 1000 nM |
| CC(=O)N[C@H]1CCN(C(=O)c2ccc(-c3ccc4c(c3)N(C(=O)OC(C)C)C[C@H](C)N4C(=O)C3CC3)cc2)C1 | 100 to 1000 nM |
| COC(=O)N1c2ccc(-c3cnn(CCO)c3)cc2N(C(=O)OC(C)C)C[C@@H]1C | 100 to 1000 nM |
| CC(=O)N1c2ccc(-c3ccc(S(C)(=O)=O)cc3)cc2N(C(=O)c2csc(-c3ccccc3)n2)C[C@@H]1C | > 10000 nM |
| CC(=O)N1c2ccc(-c3ccc(N4CCN(C)CC4)cc3)cc2N(C(=O)c2ccco2)C[C@@H]1C | 100 to 1000 nM |
| COc1cc(F)ccc1-c1ccc2c(c1)N(C(=O)c1ccco1)C[C@H](C)N2C(C)=O | > 10000 nM |
| CC(=O)N1c2ccccc2N(C(=O)c2cccc3[nH]ccc23)CC1C (stereo not drawn) | > 10000 nM |
